target: Zinc finger protein mex-5 (Caenorhabditis elegans, UniProt Q9XUB2); test: MEX-5/TCR-2 RNA interaction inhibitors, dose response, biochemical, C. elegans, fluorescence polarization (AID 1960)
pEC50: −log10 of the molar value.
Observation Type: pEC50

>>> assay_result("O=C(O)c1cc(-c2ccc(CN=Nc3ccc([N+](=O)[O-])cn3)o2)ccc1Cl")
5.20
>>> assay_result("O=C1C([N+](=O)[O-])=CC(Cl)=CC1/C=N/NC(=O)C(O)(c1ccccc1)c1ccccc1 (stereo not drawn)")
4.40
>>> assay_result("[H]/N=C1/OC23CCCCC2C(C#N)(C#N)C1(C#N)C(c1ccc(OC)cc1)O3 (stereo not drawn)")
4.95
>>> assay_result("CSc1ccc(C2C(C(=O)c3ccco3)C(=O)C(=O)N2c2nnc(SC)s2)cc1 (stereo not drawn)")
4.78
>>> assay_result("C=CCN1C(=O)NC(=O)C(=CNc2ccc(N(CC)CC)cc2)C1=O")
3.95
>>> assay_result("CCOC(=O)C1=C(C)N=c2sc(=Cc3ccc(OCC(=O)O)cc3)c(=O)n2C1c1ccc(OC)cc1OC (stereo not drawn)")
4.22
>>> assay_result("CN1C(=O)/C(=C/c2ccc(-c3ccccc3[N+](=O)[O-])o2)S/C1=N/c1ccc(Cl)c(C(=O)O)c1")
4.65

* * *

Target: Zinc finger protein mex-5 (Caenorhabditis elegans)
Sequence (Q9XUB2 whole entry): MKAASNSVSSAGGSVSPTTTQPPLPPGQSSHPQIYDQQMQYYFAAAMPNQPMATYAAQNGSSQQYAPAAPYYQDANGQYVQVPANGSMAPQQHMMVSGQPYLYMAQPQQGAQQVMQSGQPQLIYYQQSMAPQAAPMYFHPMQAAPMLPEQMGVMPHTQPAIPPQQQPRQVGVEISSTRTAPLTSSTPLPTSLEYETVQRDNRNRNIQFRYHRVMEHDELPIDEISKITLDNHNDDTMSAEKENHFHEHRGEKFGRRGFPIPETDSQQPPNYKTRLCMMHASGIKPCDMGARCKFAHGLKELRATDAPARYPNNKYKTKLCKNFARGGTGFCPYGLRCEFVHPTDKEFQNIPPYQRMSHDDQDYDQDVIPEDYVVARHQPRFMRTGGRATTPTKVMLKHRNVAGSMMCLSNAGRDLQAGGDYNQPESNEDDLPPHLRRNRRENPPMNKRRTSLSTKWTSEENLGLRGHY
Assay: MEX-5/TCR-2 RNA interaction inhibitors, dose response, biochemical, C. elegans, fluorescence polarization (AID 1960)
Observation Type: EC50

>>> assay_result("Oc1csc(N=NCc2cccs2)n1")
"> 300 µM"
>>> assay_result("COc1ccc(N2C(=O)NC(=O)C(=Cc3cn(C)c4ccccc34)C2=O)cc1 [MLS001196573]")
"1.15 µM"
>>> assay_result("CC1(C)c2[nH]c3ccccc3c2Cc2c(O)n(-c3ccc(F)cc3F)c(=O)n21 [MLS001065879]")
"46.8 µM"
>>> assay_result("O=C(N/N=C/C1C=C(Cl)C=C([N+](=O)[O-])C1=O)c1ccc2c(c1)OCO2 (stereo not given)")
"241 µM"
>>> assay_result("COc1ccc(C=C2CCCC(C(=O)C(F)(F)F)C2=O)cc1 (stereo not given) [SMR000142699]")
"41.4 µM"
>>> assay_result("N#CC1=C2CCOC[C@@H]2[C@@H](c2ccsc2)C(C#N)(C#N)C1=N")
"> 300 µM"
>>> assay_result("Cc1ccc(CN=Nc2ncnc3nc[nH]c23)cc1 [MLS000419179]")
"> 300 µM"
>>> assay_result("O=C1NC(=O)N(CCc2ccc(F)cc2)C(=O)C1=CNCCCn1ccnc1")
"> 300 µM"
>>> assay_result("Cc1ccc(C(=O)C2C(=O)C(=O)N(Cc3ccco3)C2c2cccc(Br)c2)o1 (stereo not given)")
"35.6 µM"
>>> assay_result("COc1cc(C2C3=C(CC(C)(C)CC3=O)OC(=N)C2C#N)ccc1OCCN1CCOCC1 (stereo not given) [MLS000779948]")
"> 300 µM"

* * *

Collected EC50 values appear next to each entry.
Target: UniProt:Q9XUB2
Sequence (Q9XUB2 whole entry): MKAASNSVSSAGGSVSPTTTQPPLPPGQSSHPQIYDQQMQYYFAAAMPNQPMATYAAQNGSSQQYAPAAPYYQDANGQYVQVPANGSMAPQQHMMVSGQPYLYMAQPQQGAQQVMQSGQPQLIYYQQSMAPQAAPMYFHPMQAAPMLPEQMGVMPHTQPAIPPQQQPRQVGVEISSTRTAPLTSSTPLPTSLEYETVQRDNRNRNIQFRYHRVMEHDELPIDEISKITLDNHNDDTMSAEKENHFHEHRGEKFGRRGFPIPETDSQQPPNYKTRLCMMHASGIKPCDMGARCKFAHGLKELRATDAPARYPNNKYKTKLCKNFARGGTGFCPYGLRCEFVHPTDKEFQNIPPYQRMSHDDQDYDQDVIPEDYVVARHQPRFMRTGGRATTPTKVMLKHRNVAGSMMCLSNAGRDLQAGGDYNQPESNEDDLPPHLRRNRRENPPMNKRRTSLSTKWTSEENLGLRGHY
Test: MEX-5/TCR-2 RNA interaction inhibitors, dose response, biochemical, C. elegans, fluorescence polarization (AID 1960)
Observation Type: EC50 (µM)

>>> assay_result("Cc1ncc(C=O)c(CNNC(=O)c2cc(Br)ccc2O)c1O")
5.72
>>> assay_result("Cc1cc(=O)n(-c2ccc(C(=O)O)c(N)c2)[nH]1")
38.3
>>> assay_result("CC(C)c1nnc(N2C(=O)C(=O)C(C(=O)c3cccs3)C2c2ccccc2)s1 (stereo unspecified)")
4.38
>>> assay_result("COc1ccccc1N1C(=O)C(=Nc2ccccc2O)C(Cl)C1=O (stereo unspecified)")
8.19
>>> assay_result("CN1CCC2=C(C#N)C(=N)C(C#N)(C#N)C(c3cccc(Cl)c3Cl)C2C1 (stereo unspecified)")
13.5
>>> assay_result("N#CC1C(=N)Oc2ccc3ccc(O)cc3c2C1c1ccsc1 (stereo unspecified)")
11
>>> assay_result("Cc1ccc(NNC2=Nc3ccccc3C2=O)cc1 [2-[(4-methylphenyl)hydrazo]-3-indolone]")
25.7
>>> assay_result("COCCNC(=O)Cn1cc(C=C2C(=O)NC(=O)N(c3ccccc3F)C2=O)c2ccccc21")
8.13
>>> assay_result("Cc1ccc2oc(=O)c(CC(=O)c3cccs3)nc2c1")
6.82
>>> assay_result("O=CC(C=Nc1ccccn1)c1nc2cc(Cl)ccc2o1 (stereo unspecified)")
36.4
>>> assay_result("O=[N+]([O-])c1cc/c(=N\\c2ccccc2O)c2no[nH]c1-2")
28.2

* * *

Collected pEC50 values appear next to each entry.
target: Zinc finger protein mex-5 (Caenorhabditis elegans); experiment: MEX-5/TCR-2 RNA interaction inhibitors, dose response, biochemical, C. elegans, fluorescence polarization (AID 1960)
pEC50: −log10 of the molar value.
Observation Type: pEC50

>>> assay_result("C=CCSc1nnc(N2C(=O)C(=O)C(C(=O)c3ccco3)C2c2ccccc2F)s1 (stereo not given)")
4.26
>>> assay_result("CN1CCC2(CC1)C(C#N)C(=N)NC(=S)C2C#N (stereo not given) [SMR000211480]")
5.07
>>> assay_result("COc1ccc(C2C(C(=O)c3cccs3)C(=O)C(=O)N2c2nncs2)cc1 (stereo not given)")
7.00
>>> assay_result("O=C(c1ccccc1)[C@@H]1c2c(c(O)n(-c3ccc(F)cc3)c2O)C2CCCN21 (stereo not given in full) [MLS000769629]")
4.39
>>> assay_result("C=CC1=C(C(=O)O)N2C(=O)[C@@H](NC(=O)C(N=O)c3csc(N)n3)[C@H]2SC1 (stereo not given in full)")
4.48
>>> assay_result("CCCOc1cccc(C2C(C(=O)c3ccco3)C(=O)C(=O)N2c2nnc(C)s2)c1 (stereo not given)")
4.08

* * *

target: Zinc finger protein mex-5 (Caenorhabditis elegans, UniProt Q9XUB2); test: MEX-5/TCR-2 RNA interaction inhibitors, dose response, biochemical, C. elegans, fluorescence polarization (AID 1960)
Observation Type: EC50 (µM)

>>> assay_result("O=C1CCCC2=Nc3cc(Cl)ccc3SC12 (centres undefined) [MLS000333002]")
8.9
>>> assay_result("Oc1ccc2ccccc2c1CN=Nc1nnc(-c2ncc[nH]2)c2ccccc12 [SMR000151639]")
2.45
>>> assay_result("CCOc1cc(C=C2SC(Nc3ccc(CC)cc3)=NC2=O)ccc1OCC(=O)O")
149
>>> assay_result("Nc1c(-c2nc3ccccc3[nH]2)c(O)cn1-c1ccc(CC(=O)O)cc1 [MLS000565528]")
1.59
>>> assay_result("Cc1nnc(SC(=Cc2ccc(OCc3ccc(C(=O)O)cc3)cc2)C(=O)O)[nH]1")
3.38
>>> assay_result("O=C(O)c1ccccc1N=NCc1c(Sc2nnnn2-c2ccccc2)nc2ccccn2c1=O [MLS000775267]")
116
>>> assay_result("O=C1C=CC(/C=C/c2nc(O)c([N+](=O)[O-])c(=O)[nH]2)C=C1O (centres undefined) [SMR000524347]")
179
